TEST_DESCRIPTION: isobaric coefficient of expansion
CONDITIONS: 348.15 K; 30000 kPa; Liquid; Microcalorimeter
The reader will find reported isobaric coefficient of expansion values listed item by item below.
ASSAY_READOUT: isobaric coefficient of expansion

COMPOUND	ASSAY_READOUT	RESULT
CCCCCCn1cc[n+](C)c1.F[B-](F)(F)F [1-hexyl-3-methylimidazolium tetrafluoroborate]	isobaric coefficient of expansion	0.000548 1/K
CCCC[n+]1cccc(C)c1.F[B-](F)(F)F [1-butyl-3-methylpyridinium tetrafluoroborate]	isobaric coefficient of expansion	0.000542 1/K
CCCCCC[n+]1ccn(C)c1.O=S(=O)([N-]S(=O)(=O)C(F)(F)F)C(F)(F)F	isobaric coefficient of expansion	0.000592 1/K
CCCCCCCC[n+]1ccn(C)c1.F[B-](F)(F)F [1-methyl-3-octylimidazolium tetrafluoroborate]	isobaric coefficient of expansion	0.000548 1/K
CCn1cc[n+](C)c1.F[B-](F)(F)F [1-ethyl-3-methylimidazolium tetrafluoroborate]	isobaric coefficient of expansion	0.000546 1/K
CCn1cc[n+](C)c1.O=S(=O)([N-]S(=O)(=O)C(F)(F)F)C(F)(F)F	isobaric coefficient of expansion	0.000595 1/K
